These measurements were taken from patent EP3807270B1.

tested.on: hTLR9 (Homo sapiens)
Sequence (Q9NR96 26-1032): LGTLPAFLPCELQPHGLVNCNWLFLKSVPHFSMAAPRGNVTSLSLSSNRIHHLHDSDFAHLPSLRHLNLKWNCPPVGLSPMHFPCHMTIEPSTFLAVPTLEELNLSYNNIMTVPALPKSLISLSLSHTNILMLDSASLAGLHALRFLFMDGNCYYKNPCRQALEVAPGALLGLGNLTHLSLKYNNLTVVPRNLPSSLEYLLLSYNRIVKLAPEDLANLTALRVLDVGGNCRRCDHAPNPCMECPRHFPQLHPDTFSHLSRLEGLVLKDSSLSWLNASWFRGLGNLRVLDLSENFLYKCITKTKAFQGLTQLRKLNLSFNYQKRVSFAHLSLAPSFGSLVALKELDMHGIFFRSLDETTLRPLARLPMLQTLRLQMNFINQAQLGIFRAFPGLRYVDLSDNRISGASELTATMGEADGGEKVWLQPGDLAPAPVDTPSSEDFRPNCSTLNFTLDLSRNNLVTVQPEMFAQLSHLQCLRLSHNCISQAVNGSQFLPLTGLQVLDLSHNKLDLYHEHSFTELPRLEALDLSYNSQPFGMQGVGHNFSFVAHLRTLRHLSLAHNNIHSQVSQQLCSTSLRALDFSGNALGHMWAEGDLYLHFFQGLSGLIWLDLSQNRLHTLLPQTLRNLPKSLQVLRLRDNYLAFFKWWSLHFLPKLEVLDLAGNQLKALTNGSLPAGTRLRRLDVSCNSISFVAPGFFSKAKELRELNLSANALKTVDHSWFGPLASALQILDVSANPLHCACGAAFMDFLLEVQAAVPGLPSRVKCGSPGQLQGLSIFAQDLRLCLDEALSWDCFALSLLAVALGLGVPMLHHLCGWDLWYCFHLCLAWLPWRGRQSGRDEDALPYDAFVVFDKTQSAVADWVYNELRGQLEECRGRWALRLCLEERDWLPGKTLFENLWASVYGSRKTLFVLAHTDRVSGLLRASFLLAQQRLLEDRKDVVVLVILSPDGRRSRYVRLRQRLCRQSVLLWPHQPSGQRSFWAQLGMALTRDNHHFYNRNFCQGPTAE
test.protocol: HEK293-Blue-hTLR-9 cells assay (SEAP reporter, ODN2006 stimulation)
Format: cell-based
Set-up: host or cells: HEK293 (HEK-Blue)
settings: HEK293-Blue-hTLR9 cells, ODN2006, 20 hrs; read-out: HEK/hTLR9 IC50
measured.metric: IC50 (nM)
# output: bare number, implied unit nM

Task: Quick check: IC50 of C[C@@H]1CN(c2ccc(C#N)c3ncccc23)C[C@H](CN2CCN(c3cc4c(cn3)[C@H](C)NCC4)CC2)O1 (single isomer, unassigned) ?
Output: 66

Task: Quick check: IC50 of "C[C@@H]1CN(c2ccc(C#N)c3ncccc23)C[C@H](CN2CCN(c3cnc4c(c3)CNCC4)CC2)O1" ?
Output: 52

Task: Quick check: IC50 of "C[C@@H]1CN(c2ccc(C#N)c3nccnc23)C[C@H](CN2CCN(c3cc4c(cn3)CCNC4)CC2)O1" ?
Output: 100

Task: Quick check: IC50 of "C[C@@H]1CN(c2ccc(C#N)c3ncccc23)C[C@H](CN2CC3(C2)CN(c2ccc4c(n2)CNCC4)CCO3)O1" ?
Output: 113

Task: Quick check: IC50 of "Cc1nc2c(nc1N1CCN(C[C@H]3CN(c4ccc(C#N)c5ncccc45)C[C@@H](C)O3)CC1)CCNC2" ?
Output: 156

Task: Quick check: IC50 of C[C@@H]1CN(c2ccc(C#N)c3ncccc23)C[C@H](CN2CCN(c3ccc4c(n3)CCNC4)C[C@@H](O)C2)O1 (single isomer, unassigned) [Example 35B] ?
Output: 117

Task: Quick check: IC50 of CC1NCc2ncc(N3CCN(C[C@H]4CN(c5ccc(C#N)c6ncccc56)C[C@@H](C)O4)CC3)cc21 (stereo partly shown) ?
Output: 60
